# protocol_summary: Selectivity index, ratio of IC50 for human THP1 cells to IC50 for chloroquine-resistant Plasmodium falciparum W2
# Assay type: toxicity, cell-based, THP-1
# setup_conditions: read-out: Selectivity Index
Listing of entries alongside the reported selectivity ratio.
property_name: selectivity ratio

In [3]: df
Out[3]:
                               line_notation      property_name  operator  number
 0     CC(=O)Nc1ccc2oc(-c3ccccc3F)cc(=O)c2c1  selectivity ratio         >     3.1
 1         COc1c(-c2ccccc2F)oc2ccc(N)cc2c1=O  selectivity ratio         >     5.4
 2  CC(=O)Nc1ccc(O)c(C(=O)/C=C/c2cccc(F)c2)c1  selectivity ratio         =       5
 3  COc1c(-c2cccc(F)c2)oc2ccc(NC(C)=O)cc2c1=O  selectivity ratio         >     2.6
 4  COc1ccccc1-c1oc2ccc(NC(C)=O)cc2c(=O)c1OC  selectivity ratio         =     6.7
 5  COc1ccc(/C=C/C(=O)c2cc(NC(C)=O)ccc2O)cc1  selectivity ratio         =     8.8
 6  COc1cccc(/C=C/C(=O)c2cc(NC(C)=O)ccc2O)c1  selectivity ratio         =     7.1
 7          COc1c(-c2ccccc2)oc2ccc(N)cc2c1=O  selectivity ratio         =     3.7
 8      COc1cccc(-c2oc3ccc(N)cc3c(=O)c2OC)c1  selectivity ratio         =     2.8
 9  COc1c(-c2ccc(C(F)(F)F)cc2)oc2ccc(NC(C)=O)cc2c1=O  selectivity ratio         >     3.2
10   COc1ccccc1-c1oc2ccc(NC(C)=O)cc2c(=O)c1O  selectivity ratio         >     2.5
11       COc1c(-c2ccc(F)cc2)oc2ccc(N)cc2c1=O  selectivity ratio         =     1.1
12  COc1ccc(-c2oc3ccc(NC(C)=O)cc3c(=O)c2OC)cc1  selectivity ratio         >     2.4
13        COc1ccc(-c2cc(=O)c3cc(N)ccc3o2)cc1  selectivity ratio         =     3.5
14        COc1ccccc1-c1oc2ccc(N)cc2c(=O)c1OC  selectivity ratio         =    15.1
15  COc1c(-c2cccc(C(F)(F)F)c2)oc2ccc(NC(C)=O)cc2c1=O  selectivity ratio         =     2.7
16  CC(=O)Nc1ccc(O)c(C(=O)/C=C/c2ccc(F)cc2)c1  selectivity ratio         =     4.1
17        COc1cccc(-c2cc(=O)c3cc(N)ccc3o2)c1  selectivity ratio         >       4
18   COc1c(-c2ccccc2F)oc2ccc(NC(C)=O)cc2c1=O  selectivity ratio         >     8.3
19  COc1c(-c2ccc(F)cc2)oc2ccc(NC(C)=O)cc2c1=O  selectivity ratio         >     5.4
20   CC(=O)Nc1ccc(O)c(C(=O)/C=C/c2ccccc2F)c1  selectivity ratio         >    10.2
21    COc1ccccc1/C=C/C(=O)c1cc(NC(C)=O)ccc1O  selectivity ratio         >     9.3
22    COc1c(-c2ccccc2)oc2ccc(NC(C)=O)cc2c1=O  selectivity ratio         >     6.9
23    CC(=O)Nc1ccc(O)c(C(=O)/C=C/c2ccccc2)c1  selectivity ratio         =     5.4
24   CC(=O)Nc1ccc2oc(-c3cccc(F)c3)cc(=O)c2c1  selectivity ratio         >     2.5
25         COc1ccccc1-c1oc2ccc(N)cc2c(=O)c1O  selectivity ratio         =     2.2
26          COc1ccccc1-c1cc(=O)c2cc(N)ccc2o1  selectivity ratio         =     1.5
27  CC(=O)Nc1ccc(O)c(C(=O)/C=C/c2ccc(C(F)(F)F)cc2)c1  selectivity ratio         =     1.3

* * *

Listing of entries alongside the reported pIC50.
# System: Plasmodium falciparum
# protocol_summary: Antiplasmodial activity against chloroquine-resistant Plasmodium falciparum W2 infected in human A+ erythrocytes assessed as inhibition of parasite proliferation after 48 hrs
# Format: functional, organism-based
# setup_conditions: W2, 48 h
pIC50: −log10 of the molar value.
property_name: pIC50

                              line_notation    experimental_system  property_name  operator  number
0  CC(=O)Nc1ccc(O)c(C(=O)/C=C/c2cccc(F)c2)c1  Plasmodium falciparum          pIC50         =    4.80
1        COc1ccccc1-c1oc2ccc(N)cc2c(=O)c1OC  Plasmodium falciparum          pIC50         =    5.11
2  Nc1ccc2oc(-c3cccc(C(F)(F)F)c3)c(O)c(=O)c2c1  Plasmodium falciparum          pIC50         <    5.70
3         COc1c(-c2ccccc2F)oc2ccc(N)cc2c1=O  Plasmodium falciparum          pIC50         =    4.64
4         Nc1ccc2oc(-c3ccc(F)cc3)cc(=O)c2c1  Plasmodium falciparum          pIC50         <    5.00
5        Nc1ccc2oc(-c3ccccc3F)c(O)c(=O)c2c1  Plasmodium falciparum          pIC50         <    4.42

* * *

# System: Plasmodium falciparum
# protocol_summary: Antiplasmodial activity against chloroquine-resistant Plasmodium falciparum W2 infected in human A+ erythrocytes assessed as inhibition of parasite proliferation after 48 hrs
# Type: functional, organism-based
# setup_conditions: W2, 48 h
property_name: IC50 (µM)

                                    compound  units_symbol  operator  number
 0   CC(=O)Nc1ccc(O)c(C(=O)/C=C/c2ccccc2F)c1            µM         =    12.3
 1          COc1c(-c2ccccc2)oc2ccc(N)cc2c1=O            µM         =      20
 2  COc1ccc(-c2oc3ccc(NC(C)=O)cc3c(=O)c2OC)cc1            µM         =      21
 3       COc1ccc(-c2oc3ccc(N)cc3c(=O)c2O)cc1            µM         >      29
 4  CC(=O)Nc1ccc2oc(-c3ccc(F)cc3)c(O)c(=O)c2c1            µM         >      26
 5  CC(=O)Nc1ccc2oc(-c3cccc(F)c3)c(O)c(=O)c2c1            µM         >      36
 6   CC(=O)Nc1ccc2oc(-c3ccccc3)c(O)c(=O)c2c1            µM         >      36
 7      Nc1ccc2oc(-c3cccc(F)c3)c(O)c(=O)c2c1            µM         >      30
 8  COc1c(-c2cccc(C(F)(F)F)c2)oc2ccc(N)cc2c1=O            µM         >      33
 9  Nc1ccc2oc(-c3ccc(C(F)(F)F)cc3)cc(=O)c2c1            µM         >     1.9
10  COc1c(-c2ccc(F)cc2)oc2ccc(NC(C)=O)cc2c1=O            µM         =      23
11  COc1cccc(/C=C/C(=O)c2cc(NC(C)=O)ccc2O)c1            µM         =    13.2
12  Nc1ccc2oc(-c3ccccc3)cc(=O)c2c1 [6-AMINOFLAVONE]            µM         >      36
13           Nc1ccc2oc(-c3ccccc3F)cc(=O)c2c1            µM         >      44
14      Nc1ccc2oc(-c3ccc(F)cc3)c(O)c(=O)c2c1            µM         >       4
15   CC(=O)Nc1ccc2oc(-c3cccc(F)c3)cc(=O)c2c1            µM         =      50
16    COc1ccccc1-c1cc(=O)c2cc(NC(C)=O)ccc2o1            µM         >      50
17  CC(=O)Nc1ccc(O)c(C(=O)/C=C/c2cccc(C(F)(F)F)c2)c1            µM         =    11.3
18    CC(=O)Nc1ccc(O)c(C(=O)/C=C/c2ccccc2)c1            µM         =    15.9
19        COc1ccc(-c2cc(=O)c3cc(N)ccc3o2)cc1            µM         =      35
20          COc1ccccc1-c1cc(=O)c2cc(N)ccc2o1            µM         =      50
21         COc1ccccc1-c1oc2ccc(N)cc2c(=O)c1O            µM         =      46
22    COc1c(-c2ccccc2)oc2ccc(NC(C)=O)cc2c1=O            µM         =      18
23  COc1cccc(-c2oc3ccc(NC(C)=O)cc3c(=O)c2O)c1            µM         =      50

Provenance of the data: ChEMBL document CHEMBL1212869
